Documented protein stability index across a set of variants
B1: HMOX1 (parent)
chain: YHIYVALEEEIERNKESPVFAPVY

- Variants of: B1
- Run description: protein stability index of a GFP-peptide fusion (GPS, HEK-293T) (PSI 1-6); higher = more stable;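 also: lentivirally expressed fusions sorted by FACS into six bins by GFP to DsRed ratio, PSI derived from sequencing read proportions per bin multiplied by bin number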
- Measurement context: c terminus: a fixed tail appended
Readout kind: protein stability index

1) R13H    1.75
2) I3P    2.06
3) E12T    1.85
4) P22H    1.98
5) E10I    1.74
